Hi there, I'd appreciate the recorded TGI for every entry that follows.
test system: TK-10 renal; experiment: NCI tumour cell line growth inhibition, 48 h

The molecule O=C(c1ccccn1)c1nnn2ccccc12 , when measured on TK-10 renal, yielded TGI of > 100 µM

Entry CC(C)(C)C(=O)OCOP(=O)(OCOC(=O)C(C)(C)C)C1CCCN(OC(=O)c2ccccc2)C1=O (stereo unspecified) under TK-10 renal had TGI of 23.2 µM

Result for CN(C)CCSC(=Nc1ccccc1)N1C=COC=C1 , tested on TK-10 renal, TGI: > 100 µM

Simply: COc1ccc(CN2C(=O)C(Cc3cc(OC)c(OC)c(C)c3OC)N(C(=O)OC(C)C)C(=O)/C2=C/c2cc(OC)c(OC)c(C)c2OC)cc1 (stereo unspecified) , TK-10 renal, TGI = > 100 µM

The recorded TGI with TK-10 renal for O=C(/C=C/C=C/c1ccccc1)c1ccc(Nc2nc(Nc3ccccc3)nc(Nc3ccccc3)n2)cc1 was > 100 µM

# value of TGI, TK-10 renal, item COc1ccc(-n2nnc3c(C#N)c(-c4ccccc4)c(C)n3c2=O)cc1 = > 100 µM

###

tested on: HCT-15 colon; assay: NCI tumour cell line growth inhibition, 48 h
measurement_type: TGI

// TGI lookup, compound = CCOc1cc(C=O)c2c(ccc3ccc(OC)c(OC)c32)c1OC , result: > 100 µM

Measured TGI of C=C1C(=O)O[C@H]2[C@H]1CC/C(C=Nc1ccc(C(F)(F)F)cc1N)=C\CC[C@@]1(C)O[C@@H]21 : 13.6 µM

Field TGI (entry C[C@@H](C(=O)O)c1ccc(-c2ccccc2)c(F)c1 ) reads > 100 µM

Value of measured TGI for the entry C[N+](C)(C)CCC(=O)N1C/C(=C\c2ccccc2)C(=O)/C(=C/c2ccccc2)C1 : 6.49 µM

The value of TGI measured for the compound COc1cc(C2c3cc4c(cc3OC3(O)COC(=O)C23)OCO4)cc(OC)c1OC (stereo unspecified) turned out to be > 100 µM

The reported TGI of the compound CCCCCCCCCCCC1=NC(C)(C)CN1CCO was 4.42 µM

Form: compound = CC(N)C(=O)c1ccc(O)cc1 (stereo unspecified) ; TGI = > 100 µM

What the record says about COc1ccc(Nc2c3c4c(cccc4[nH]c2=O)C(=O)c2ccccc2-3)cc1 : TGI is > 100 µM

Field TGI (entry O=c1c2cc(Br)ccc2[nH]c(=S)n1-c1ccc(Br)cc1 ) reads > 100 µM

# TGI of O=C1NC2OCC(O)C(O1)C2O (stereo unspecified) = > 100 µM

Form field TGI, entry Cc1c(/C=N/NC(=O)c2ccccc2)c(=O)n(-c2ccccc2)n1C : > 100 µM

The recorded TGI for entry Brc1ccccc1/C=C\C1(c2ccccc2)OCCO1 equals 19.5 µM

// sample OC(c1ccsc1)c1cc2ccccc2s1 (stereo unspecified) , its TGI was > 10 µM

// recorded TGI for COc1ccc(N2C(=O)CSC2c2cc3cc(Br)ccc3nc2Cl)cc1 (stereo unspecified) : > 50 µM

Noted for c1ccc2c(c1)ccc1ncccc12 : its TGI reads > 100 µM

For record CCc1ccc(CCC(=O)Nc2ncc(Cc3cc(Cl)ccc3Cl)s2)o1 the listed TGI is > 50 µM

Entry Nc1ncnc2c1c(-c1cccc(OCc3ccccc3)c1)cn2C1CC(CN2CCCC2)C1 (stereo unspecified) , TGI reported as 5.94 µM

Record CN(C)CCCc1cccnc1 . Reported TGI: > 100 µM

TGI for CN(C)c1ccc(/C=C/C(=O)c2ccccc2)cc1Br is 54.7 µM

Briefly, TGI measured for CN(C)c1ccccc1CC(c1c[nH]c2ccccc12)c1c[nH]c2ccccc12 : 28.8 µM

Query COc1ccc(C(=O)/C=C2\c3ccccc3C(=O)N2C)cc1 yields TGI of > 100 µM
